tested on: Staphylococcus aureus; assay: Antibacterial activity against clindamycin/erythromycin/spectinomycin-resistant mec-positive Staphylococcus aureus NRS70 measured after 16 to 20 hrs by microdilution method; type: functional
readout: MIC (µg/mL)
One number for each entry, in µg/mL.

Sample answers from the record:
{"columns": ["test_smiles", "endpoint_unit", "MIC"],
 "data": [
  ["O=C(O)c1cccc(-n2c(/C=C/c3ccc(I)cc3)nc3ccccc3c2=O)c1", "µg/mL", 0.5],
  ["N#Cc1ccc(/C=C/c2nc3ccccc3c(=O)n2-c2cccc(CNC(=O)C(F)(F)F)c2)cc1", "µg/mL", 64],
  ["O=C(O)c1cccc(-n2c(/C=C/c3ccc(Cl)cc3)nc3ccccc3c2=O)c1", "µg/mL", 0.25]
]}

Below is a list of compounds. For each, state its recorded MIC.
1. N#Cc1ccc(/C=C/c2nc3ccccc3c(=O)n2-c2cccc(S(N)(=O)=O)c2)cc1
2. O=C(O)c1cccc(-n2c(SCc3ccccc3)nc3ccccc3c2=O)c1
3. N#Cc1ccc(/C=C/c2nc3ccccc3c(=O)n2-c2cc(C(=O)O)ccc2F)cc1
4. N#Cc1ccc(/C=C/c2nc3ccccc3c(=O)n2-c2ccccc2O)cc1
5. N#Cc1ccc(/C=C/c2nc3ccccc3c(=O)n2-c2cccc(C(=O)O)c2)s1

A)
0.06
0.5
0.5
0.06
4

// each compound listed below needs its MIC
1. Cc1ccc(C(=O)O)cc1-n1c(/C=C/c2ccc(C#N)cc2)nc2ccccc2c1=O
2. N#Cc1ccc(/C=C/c2nc3ccccc3c(=O)n2-c2cccc(C(=O)O)c2)cc1

A)
1. 4
2. 2

Quick one: give me MIC for each item below, same order please.
1. N#Cc1ccc(/C=C/c2nc3ccccc3c(=O)n2-c2cc(C(=O)O)ccc2Cl)cc1
2. N#Cc1ccc(/C=C/c2nc3ccccc3c(=O)n2-c2ccc[n+]([O-])c2)cc1
3. O=C(O)c1cccc(-n2c(/C=C/c3cc(Cl)cs3)nc3ccccc3c2=O)c1

A)
1: 2; 2: 1; 3: 2

For each of the items listed, what is its MIC?
1. O=C(O)c1cccc(-n2c(/C=C/c3ccc(Br)s3)nc3ccccc3c2=O)c1
2. O=C(O)c1cccc(-n2c(/C=C/c3ccc(Cl)s3)nc3ccccc3c2=O)c1
3. N#Cc1ccc(/C=C/c2nc3ccccc3c(=O)n2-c2cccc(NC(=O)C(F)(F)F)c2)cc1
4. CS(=O)(=O)Nc1cccc(-n2c(NCc3ccc(C#N)cc3)nc3ccccc3c2=O)c1

A)
1. 0.5
2. 0.5
3. 0.06
4. 0.25

* * *

test: Protein binding in human plasma at 10 uM measured after 6 hrs UV-UPLC based rapid equilibrium dialysis method; assay type: ADME, cell-free
readout: PPB (%)
Answers are plain numbers, in %.

{"columns": ["test_smiles", "PPB (%)"],
 "data": [
  ["N#Cc1ccc(/C=C/c2nc3ccccc3c(=O)n2-c2cccc(C(N)=O)c2)cc1", 97.1]
]}

I'm hoping you can list PPB for every molecule here, please.
1. O=C(O)c1cccc(-n2c(/C=C/c3ccc(Cl)s3)nc3ccccc3c2=O)c1
2. N#Cc1ccc(/C=C/c2nc3ccccc3c(=O)n2-c2ccc[n+]([O-])c2)cc1

A)
1: 99.3; 2: 67.9

* * *

test: Elimination half life in ICR mouse at 10 mg/kg, iv by UV-UPLC analysis; type: ADME, organism-based; conditions: ICR, in vivo, read-out: beta t1/2
readout: half-life

Lookup result for `N#Cc1ccc(/C=C/c2nc3ccccc3c(=O)n2-c2cccc(C(=O)O)c2)cc1` ; measured half-life: > 1200 min

* * *

test system: Staphylococcus aureus; experiment: Antibacterial activity against Staphylococcus aureus ATCC 29213 measured after 16 to 20 hrs by microdilution method; type: functional
readout: MIC (µg/mL)
Give bare numbers, in µg/mL.

{"columns": ["test_smiles", "endpoint_unit", "MIC"],
 "data": [
  ["O=C(O)c1cccc(-n2c(/C=C/c3ccc(Br)s3)nc3ccccc3c2=O)c1", "µg/mL", 0.25]
]}

Entry `N#Cc1ccc(/C=C/c2nc3ccccc3c(=O)n2-c2cccc(NC(=O)C(F)(F)F)c2)cc1` — recorded MIC = 2

* * *

assay: Clearance in ICR mouse at 5 mg/kg, iv by UV-UPLC analysis; assay type: ADME, organism-based; settings: in vivo
readout: clearance (mL/min/kg)
One number for each entry, in mL/min/kg.

{"columns": ["test_smiles", "obs_value"],
 "data": [
  ["C#Cc1ccc(/C=C/c2nc3ccccc3c(=O)n2-c2cccc(S(N)(=O)=O)c2)cc1", 28.2]
]}

Next up:
For `N#Cc1ccc(/C=C/c2nc3ccccc3c(=O)n2-c2cccc(S(N)(=O)=O)c2)cc1` the molecule record lists clearance as 98

* * *

system: Staphylococcus aureus; assay: Antibacterial activity against Staphylococcus aureus ATCC 29213 measured after 16 to 20 hrs by microdilution method; type: functional
Would you mind telling me the reported MIC of each entry?

These recorded examples may help you get a feel for the data.
{"columns": ["test_smiles", "obs_value"],
 "data": [
  ["N#Cc1ccc(/C=C/c2nc3ccccc3c(=O)n2-c2cc(C(=O)O)ccn2)cc1", "> 128 µg/mL"],
  ["N#Cc1ccc(CSc2nc3ccccc3c(=O)n2-c2cccc(C(=O)O)c2)cc1", "2 µg/mL"],
  ["COc1ccc(C(=O)O)cc1-n1c(/C=C/c2ccc(C#N)cc2)nc2ccccc2c1=O", "> 128 µg/mL"],
  ["O=c1c2ccccc2nc(N2CCCCC2)n1-c1cccc([N+](=O)[O-])c1", "> 128 µg/mL"],
  ["N#Cc1ccc(/C=C/c2nc3ccccc3c(=O)n2-c2ccc3[nH]c(=O)[nH]c3c2)cc1", "> 128 µg/mL"],
  ["N#Cc1ccc(/C=C/c2nc3ccccc3c(=O)n2-c2ccc[n+]([O-])c2)cc1", "2 µg/mL"]
]}

For every listed record, write down its MIC.
1. O=C(O)c1cccc(-n2c(/C=C/c3nccs3)nc3ccccc3c2=O)c1
2. O=C(O)c1cccc(-n2c(/C=C/c3cc[n+]([O-])cc3)nc3ccccc3c2=O)c1
3. N#Cc1ccc(/C=C/c2nc3ccccc3c(=O)n2-c2cccc(C(=O)O)c2)cn1

A)
1: > 128 µg/mL; 2: > 128 µg/mL; 3: 64 µg/mL

* * *

Give log10 MIC for every item shown.
test system: Staphylococcus aureus; assay: Antibacterial activity against multi-drug resistant mec-positive Staphylococcus aureus USA300 measured after 16 to 20 hrs by microdilution method; type: functional
In plain terms, each number is the log10 of measured MIC in µg/mL.

Consider the following illustrative entries.
{"columns": ["test_smiles", "log10 MIC"],
 "data": [
  ["O=C(O)c1cccc(-n2c(/C=C/c3ccc(Cl)s3)nc3ccccc3c2=O)c1", 0.00],
  ["N#Cc1ccc(/C=C/c2nc3ccccc3c(=O)n2-c2cccc(C(=O)O)c2)cc1", -0.30],
  ["N#Cc1ccc(/C=C/c2nc3ccccc3c(=O)n2-c2cccc(NC(=O)C(F)(F)F)c2)cc1", -1.22],
  ["N#Cc1ccc(/C=C/c2nc3ccccc3c(=O)n2-c2cccc(S(N)(=O)=O)c2)cc1", -1.22],
  ["O=C(O)c1cccc(-n2c(/C=C/c3ccc(Cl)cc3)nc3ccccc3c2=O)c1", -0.90],
  ["Cc1ccc(C(=O)O)cc1-n1c(/C=C/c2ccc(C#N)cc2)nc2ccccc2c1=O", 0.00],
  ["O=C(O)c1cccc(-n2c(/C=C/c3cc(Cl)cs3)nc3ccccc3c2=O)c1", 0.60],
  ["O=C(O)c1cccc(-n2c(CCc3ccc(F)cc3)nc3ccccc3c2=O)c1", 0.00],
  ["CS(=O)(=O)Nc1cccc(-n2c(NCc3ccc(C#N)cc3)nc3ccccc3c2=O)c1", -0.60],
  ["N#Cc1ccc(/C=C/c2nc3ccccc3c(=O)n2-c2ccc[n+]([O-])c2)cc1", 0.00]
]}

Respectfully, I request log10 MIC for each entry included below.
1. N#Cc1ccc(/C=C/c2nc3ccccc3c(=O)n2-c2cccc(CNC(=O)C(F)(F)F)c2)cc1
2. O=C(O)c1cccc(-n2c(SCc3ccccc3)nc3ccccc3c2=O)c1
3. O=C(O)c1cccc(-n2c(/C=C/c3ccc(I)cc3)nc3ccccc3c2=O)c1
4. C#Cc1ccc(/C=C/c2nc3ccccc3c(=O)n2-c2cccc(C(=O)O)c2)cc1
5. N#Cc1ccc(/C=C/c2nc3ccccc3c(=O)n2-c2cccc(C(=O)O)c2)s1

A)
1. 0.60
2. 0.00
3. -0.60
4. -1.52
5. 0.60

For record `N#Cc1ccc(/C=C/c2nc3ccccc3c(=O)n2-c2ccccc2O)cc1` the listed log10 MIC is -1.52

* * *

tested on: Staphylococcus aureus; assay: Antibacterial activity against Staphylococcus aureus ATCC 29213 measured after 16 to 20 hrs by microdilution method; type: functional
Assignment: determine reported MIC for the given compounds.

Hey, quick one: what's MIC for each of these?
1. O=C(O)c1cccc(-n2c(/C=C/C3CC3)nc3ccccc3c2=O)c1
2. O=C(O)c1cccc(-n2c(/C=C/c3cccnc3F)nc3ccccc3c2=O)c1
3. O=C(O)c1cccc(-n2c(/C=C/c3ccnc(F)c3)nc3ccccc3c2=O)c1
4. N#Cc1ccc(/C=C/c2nc3ccccc3c(=O)n2-c2cc(O)cc(C(=O)O)c2)cc1
5. N#Cc1ccc(/C=C/c2nc3ccccc3c(=O)n2-c2ccc([N+](=O)[O-])cc2)cc1

A)
1: > 128 µg/mL; 2: > 128 µg/mL; 3: > 128 µg/mL; 4: > 128 µg/mL; 5: > 128 µg/mL

Hello, the source for this data is ChEMBL document CHEMBL4342526, in case you need it.
